Biological target: full-length beta-Catenin (Uniprot ID P35222) (Homo sapiens, UniProt P35222)
Construct: 10 nM full-length beta-Catenin (Uniprot ID P35222)
Test: Fluorescence polarization IC50 (beta-catenin / 5FAM-TCF4 10-53 competition)
Type: binding
Details: fluorescence polarization; read-out: beta-Catenin FP IC50
MEASURED METRIC: pIC50
Lab note — pIC50 values are minus log10 of concentrations in M.

Look over these answered cases.
>  <MOLECULE>
CC(=O)N1CCC[C@]12CC=CCCCC1(CCCC=CCCCOC(=O)N3CC[C@@](C(=O)N[C@@H](Cc4ccsc4)C(=O)N[C@@H](Cc4csc5ccccc45)C(=O)N[C@@H](CCC(N)=O)C(N)=O)(C3)NC(=O)[C@H](CC(C)C)NC(=O)[C@H](Cc3ccccc3)NC(=O)[C@H](C)NC(=O)[C@H](CC(=O)N3CCOCC3)NC(=O)[C@H](CC(=O)O)NC(=O)[C@H](CC(=O)O)NC1=O)NC(=O)[C@H](CC(C)(C)C)NC(=O)[C@H](CC(=O)O)NC2=O (some centres unmarked)

>  <MEASURED VALUE>
7.66

$$$$
>  <MOLECULE>
CC(=O)N1CCC[C@]12CC=CCCCC1(CCCC=CCCCCCC[C@@](C)(C(=O)N[C@@H](Cc3ccccc3)C(=O)N[C@@H](Cc3csc4ccccc34)C(=O)N[C@@H](CCC(N)=O)C(N)=O)NC(=O)[C@H](CCC(N)=O)NC(=O)[C@H](Cc3ccccc3)NC(=O)[C@H](C)NC(=O)[C@H](C)NC(=O)[C@H](CCC(=O)O)NC(=O)[C@H](CC(=O)O)NC1=O)NC(=O)[C@H](C)NC(=O)[C@H](CC(=O)O)NC2=O (some centres unmarked)

>  <MEASURED VALUE>
7.03

$$$$
>  <MOLECULE>
CC(=O)N1CCC[C@]12CC=CCCCC1(CCCC=CCCCOC(=O)N3CC[C@@](C(=O)N[C@@H](Cc4ccccc4Cl)C(=O)N[C@@H](Cc4csc5ccccc45)C(=O)N[C@@H](CN4CCOCC4)C(N)=O)(C3)NC(=O)[C@H](CC(N)=O)NC(=O)[C@H](Cc3ccccc3)NC(=O)[C@H](C)NC(=O)[C@H](C)NC(=O)[C@H](CC(=O)O)NC(=O)[C@H](CC(=O)O)NC1=O)NC(=O)[C@H](CC(C)(C)C)NC(=O)[C@H](CC(=O)O)NC2=O (some centres unmarked) [I-1134]

>  <MEASURED VALUE>
8.22

$$$$

[ask] Give the reported value of pIC50 for this record: CC[C@H](C)[C@@H]1NC(=O)[C@H](CC(=O)O)NC(=O)[C@]2(CC=CCCCC3(CCCC=CCCCCCC[C@@](C)(C(=O)N[C@@H](Cc4ccccc4)C(=O)N[C@@H](Cc4csc5ccccc45)C(=O)N[C@@H](CCC(N)=O)C(N)=O)NC(=O)[C@H](CCC(N)=O)NC(=O)[C@H](Cc4ccccc4)NC(=O)[C@H](C)NC(=O)[C@H](Cc4ccccc4)NC(=O)[C@H](CCC(=O)O)NC(=O)[C@H](CC(=O)O)NC3=O)NC1=O)CCCN2C(C)=O (some centres unmarked) [I-649]
[reply] 6.68

[ask] Give the reported value of pIC50 for this record: CC(C)C[C@@H]1NC(=O)[C@H](Cc2ccccc2)NC(=O)[C@H](C)NC(=O)[C@H](C)NC(=O)[C@H](Cc2cccc(C(=O)O)c2)NC(=O)[C@H](CC(=O)O)NC(=O)C2(CCCC=CCCCOC(=O)N3CC[C@@](C(=O)N[C@@H](Cc4ccccc4Cl)C(=O)N[C@@H](Cc4csc5ccccc45)C(=O)N[C@@H](C)C(N)=O)(C3)NC1=O)CCCC=CC[C@]1(CCCN1C(=O)OC1CCCCC1)C(=O)N[C@@H](CC(=O)O)C(=O)N[C@@H](CC(C)(C)C)C(=O)N2 (some centres unmarked)
[reply] 5.87

* * *

# inhibition at 10 µM values compiled below
Target: beta-catenin/TCF4 engagement (Homo sapiens, UniProt P35222)
Construct: expressed in transfected cells; host or cells: HEK293
Sequence (P35222 whole entry): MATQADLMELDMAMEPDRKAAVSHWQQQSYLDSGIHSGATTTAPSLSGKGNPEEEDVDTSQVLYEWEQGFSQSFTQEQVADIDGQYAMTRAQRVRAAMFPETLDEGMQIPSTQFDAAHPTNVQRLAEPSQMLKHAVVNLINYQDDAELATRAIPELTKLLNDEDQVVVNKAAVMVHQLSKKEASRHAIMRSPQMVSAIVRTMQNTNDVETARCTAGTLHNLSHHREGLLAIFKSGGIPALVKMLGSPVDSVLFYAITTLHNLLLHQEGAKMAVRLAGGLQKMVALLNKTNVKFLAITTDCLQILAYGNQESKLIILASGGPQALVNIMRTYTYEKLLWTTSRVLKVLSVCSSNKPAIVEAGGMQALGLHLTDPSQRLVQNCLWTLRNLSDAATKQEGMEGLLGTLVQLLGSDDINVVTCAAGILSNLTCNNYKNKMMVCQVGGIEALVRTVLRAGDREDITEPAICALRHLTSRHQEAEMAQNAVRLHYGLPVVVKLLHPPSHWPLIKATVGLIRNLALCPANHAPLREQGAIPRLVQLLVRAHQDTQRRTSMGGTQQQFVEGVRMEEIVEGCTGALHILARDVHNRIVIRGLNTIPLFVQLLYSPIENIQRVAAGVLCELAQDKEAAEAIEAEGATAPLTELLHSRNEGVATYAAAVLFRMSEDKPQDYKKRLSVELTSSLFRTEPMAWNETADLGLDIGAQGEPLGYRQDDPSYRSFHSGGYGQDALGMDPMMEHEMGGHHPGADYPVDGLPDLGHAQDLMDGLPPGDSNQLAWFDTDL
Assay: Nano-BRET target engagement assay (B-cat-Halo & TCF4-Luc in HEK293 cells)
Assay type: cell-based
Conditions: HEK293, 10 uM; read-out: NanoBRET % inh @ 10 uM
The response must be a number in % with no trailing unit.

>  <COMPOUND>
CC(=O)N1CCC[C@]12CC=CCCCC1(CCCC=CCCCOC(=O)N3CC[C@@](C(=O)N[C@@H](Cc4ccsc4)C(=O)N[C@@H](Cc4csc5ccccc45)C(=O)N[C@@H](C(N)=O)[C@H](C)O)(C3)NC(=O)[C@H](CC(N)=O)NC(=O)[C@H](Cc3ccccc3)NC(=O)[C@H](C)NC(=O)[C@H](C)NC(=O)[C@H](CC(=O)O)NC(=O)[C@H](CC(=O)O)NC1=O)NC(=O)[C@H](CC(C)(C)C)NC(=O)[C@H](CC(=O)O)NC2=O (some centres unmarked) [I-817]

>  <MEASURED METRIC>
inhibition at 10 µM

>  <MEASURED VALUE>
45

$$$$

# evaluate next
[ask] # return inhibition at 10 µM for CC(=O)N1CCC[C@]12CC=CCCCC1(CCCC=CCCCOC(=O)N3CC[C@@](C(=O)N[C@@H](Cc4ccsc4)C(=O)N[C@@H](Cc4csc5ccccc45)C(=O)N[C@@H](CCC(N)=O)C(=O)N[C@H](C)C(N)=O)(C3)NC(=O)[C@H](CC(N)=O)NC(=O)[C@H](Cc3ccccc3)NC(=O)[C@H](C)NC(=O)[C@H](C)NC(=O)[C@H](CC(=O)O)NC(=O)[C@H](CC(=O)O)NC1=O)NC(=O)[C@H](CC(C)(C)C)NC(=O)[C@H](CC(=O)O)NC2=O (some centres unmarked) [I-822] , test system: beta-catenin/TCF4 engagement (Homo sapiens, UniProt P35222)
[reply] 53

* * *

Target: full-length beta-Catenin (Uniprot ID P35222) (Homo sapiens, UniProt P35222)
Construct: 10 nM full-length beta-Catenin (Uniprot ID P35222)
Assay: Fluorescence polarization IC50 (beta-catenin / 5FAM-TCF4 10-53 competition)
Assay type: binding
Conditions: fluorescence polarization; read-out: beta-Catenin FP IC50
MEASURED METRIC: pIC50
Lab note — pIC50 values are minus log10 of concentrations in M.

Look over these answered cases.
>  <COMPOUND>
CC[C@@H]1NC(=O)[C@H](Cc2ccccc2)NC(=O)[C@H](C)NC(=O)C(C)(C)NC(=O)[C@H](Cc2cccc(C(=O)O)c2)NC(=O)[C@H](CC(=O)O)NC(=O)C2(CCCC=CCCCOC(=O)N3CC[C@@](C(=O)N[C@@H](Cc4ccsc4)C(=O)N[C@@H](Cc4csc5ccccc45)C(=O)N[C@@H](CCC(=O)N(CCOC)CCOC)C(N)=O)(C3)NC1=O)CCCC=CC[C@]1(CCCN1C(C)=O)C(=O)N[C@@H](CC(=O)O)C(=O)N[C@@H](CC(C)(C)C)C(=O)N2 (some centres unmarked)

>  <MEASURED VALUE>
8.10

$$$$
>  <COMPOUND>
CC(=O)N1CCC[C@]12CC=CCCCC1(CCCC=CCCCCCC[C@@](C)(C(=O)N[C@@H](Cc3ccccc3)C(=O)N[C@@H](Cc3csc4ccccc34)C(=O)N[C@@H](CCC(N)=O)C(N)=O)NC(=O)[C@H](CC(C)C)NC(=O)[C@H](Cc3ccccc3)NC(=O)[C@H](C)NC(=O)[C@H](C)NC(=O)[C@H](CCC(=O)O)NC(=O)[C@H](CC(=O)O)NC1=O)NC(=O)[C@H](CCC(N)=O)NC(=O)[C@H](CC(=O)O)NC2=O (some centres unmarked)

>  <MEASURED VALUE>
7.41

$$$$
>  <COMPOUND>
CC(=O)N1CCC[C@]12CC=CCCCC1(CCCC=CCCCCCC[C@@](C)(C(=O)N[C@@H](Cc3ccncc3)C(=O)N[C@@H](Cc3csc4ccccc34)C(=O)N[C@@H](CCC(N)=O)C(N)=O)NC(=O)[C@H](C(C)C)NC(=O)[C@H](Cc3ccccc3)NC(=O)[C@H](C)NC(=O)[C@H](C)NC(=O)[C@H](CCC(=O)O)NC(=O)[C@H](CC(=O)O)NC1=O)NC(=O)[C@H](C)NC(=O)[C@H](CC(=O)O)NC2=O (some centres unmarked)

>  <MEASURED VALUE>
5.50

$$$$
>  <COMPOUND>
CC(=O)N1CCC[C@]12CC=CCCCC1(CCCC=CCCCOC(=O)N3CC[C@@](C(=O)N[C@@H](Cc4ccccc4Cl)C(=O)N[C@@H](Cc4csc5ccccc45)C(=O)N[C@@H](Cc4ccccc4)C(N)=O)(C3)NC(=O)[C@H](C)NC(=O)[C@H](Cc3ccccc3)NC(=O)[C@H](C)NC(=O)[C@H](C)NC(=O)[C@H](Cc3cccc(C(=O)O)c3)NC(=O)[C@H](CC(=O)O)NC1=O)NC(=O)[C@H](CC(C)(C)C)NC(=O)[C@H](CC(=O)O)NC2=O (some centres unmarked)

>  <MEASURED VALUE>
6.96

$$$$

# evaluate next
[ask] # return pIC50 for CC(=O)N1CCC[C@]12CC=CCCCC1(CCCC=CCCCOC(=O)N3CC[C@@](C(=O)N[C@@H](Cc4ccccc4Cl)C(=O)N[C@@H](Cc4csc5ccccc45)C(=O)N[C@@H](CO)C(N)=O)(C3)NC(=O)[C@H](CC(C)C)NC(=O)[C@H](Cc3ccccc3)NC(=O)[C@H](C)NC(=O)[C@H](CO)NC(=O)[C@H](Cc3cccc(C(=O)O)c3)NC(=O)[C@H](CC(=O)O)NC1=O)NC(=O)[C@H](CC(C)(C)C)NC(=O)[C@H](CC(=O)O)NC2=O (some centres unmarked) [I-1902] , test system: full-length beta-Catenin (Uniprot ID P35222) (Homo sapiens, UniProt P35222)
[reply] 7.55
